Reported AUC(0-inf) values for a set of compounds
EXPERIMENTAL_PROTOCOL: Pharmacokinetic study, 4 hour time course
Type: in vivo, Sprague-Dawley rats
TEST_SETTINGS: Sprague-Dawley, rat, in vivo, ip, 10 mg/kg, AUCinf
Expressed in ng·h/mL, but write only the number.

# COMPOUND, UNITS_SYMBOL, AUC(0-inf)
data = [
    ("COc1ccccc1OCCNC[C@H](O)COc1ccc(O)cc1", "ng·h/mL", 2160),
]

The recorded AUC(0-inf) for entry O=C(NCCNCC(O)COc1ccc(O)cc1)N1CCOCC1 (centres unmarked) [Xamoterol, reference compound] equals 2830

----------
EXPERIMENTAL_PROTOCOL: Pharmacokinetic study, 4 hour time course
Format: in vivo, Sprague-Dawley rats
TEST_SETTINGS: Sprague-Dawley, rat, in vivo, iv, 10 mg/kg, Cmax
MEASURED_ENDPOINT: Cmax
Kindly write the number and append the unit.

# COMPOUND, Cmax
data = [
    ("O=C(NCCNCC(O)COc1ccc(O)cc1)N1CCOCC1 (centres unmarked) [Xamoterol, reference compound]", "22200 ng/mL"),
]

API: the following record is the query input.
Lookup result for COc1ccccc1OCCNC[C@H](O)COc1ccc(O)cc1 [Compound 43] ; measured Cmax: 4000 ng/mL

----------
STUDY_TARGET: ADRB1 (Homo sapiens (Human))
Sequence (P08588 whole entry): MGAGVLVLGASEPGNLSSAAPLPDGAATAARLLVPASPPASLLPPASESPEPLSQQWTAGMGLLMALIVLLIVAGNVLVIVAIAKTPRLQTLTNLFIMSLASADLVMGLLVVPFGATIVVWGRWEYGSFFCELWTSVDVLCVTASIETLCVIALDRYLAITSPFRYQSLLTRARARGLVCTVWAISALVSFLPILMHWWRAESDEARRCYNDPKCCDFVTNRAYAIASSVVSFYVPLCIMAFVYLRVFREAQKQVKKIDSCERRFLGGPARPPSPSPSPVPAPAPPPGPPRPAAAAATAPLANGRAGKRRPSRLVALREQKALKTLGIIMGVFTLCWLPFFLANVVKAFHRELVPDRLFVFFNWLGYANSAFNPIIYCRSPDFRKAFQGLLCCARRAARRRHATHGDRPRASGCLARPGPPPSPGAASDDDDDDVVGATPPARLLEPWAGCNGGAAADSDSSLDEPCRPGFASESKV
EXPERIMENTAL_PROTOCOL: cAMP assay (homogenous time-resolved fluorescence) in HEK-293 cells stably expressing human recombinant ADRB1
Format: cell-based
TEST_SETTINGS: Table 3; read-out: cAMP pathway ADRB1 EC50
MEASURED_ENDPOINT: EC50

The reported EC50 of the compound O=C(NCCNC[C@H](O)COc1cc(F)c(O)cc1F)N1CCOCC1 [Compound 28] was 1 to 10 nM

Sure, the documented EC50 for N#Cc1cc(OC[C@@H](O)CNCCNC(=O)N2CCOCC2)ccc1O [Compound 29] is 1 to 10 nM

----------
EXPERIMENTAL_PROTOCOL: Pharmacokinetic study, 4 hour time course
Format: in vivo, Sprague-Dawley rats
TEST_SETTINGS: Sprague-Dawley, rat, in vivo, iv, 10 mg/kg, AUCinf
MEASURED_ENDPOINT: AUC(0-inf) (ng·h/mL)
The response must be a number in ng·h/mL with no trailing unit.

# COMPOUND, MEASURED_ENDPOINT, VALUE_REPORTED
measured = [
    ("COc1ccccc1OCCNC[C@H](O)COc1ccc(O)cc1 [Compound 43]", "AUC(0-inf)", 1800),
]

Could you now consider this next compound?
For O=C(NCCNCC(O)COc1ccc(O)cc1)N1CCOCC1 (centres unmarked) [Xamoterol, reference compound] the compound record lists AUC(0-inf) as 2450

----------
EXPERIMENTAL_PROTOCOL: Pharmacokinetic study, 4 hour time course
Assay type: in vivo, Sprague-Dawley rats
TEST_SETTINGS: Sprague-Dawley, rat, in vivo, ip, 10 mg/kg, Cmax
Description: Two cohorts of Sprague-Dawley rats are used in two independent studies. All animals are fasted overnight before the experiment with free access to water. In study 1, a total of 18 rats are used for a 4 h time course pharmacokinetic (PK) study. […] On the day of the experiment, xamoterol is freshly prepared in saline. […] Four hours post-dose, rats are deeply anesthetized with isoflurane and blood samples are collected by cardiac puncture. […]
MEASURED_ENDPOINT: Cmax

# MOLECULE, Cmax
records = [
    ("O=C(NCCNCC(O)COc1ccc(O)cc1)N1CCOCC1 (centres unmarked) [Xamoterol, reference compound]", "7440 ng/mL"),
]

Record COc1ccccc1OCCNC[C@H](O)COc1ccc(O)cc1 [Compound 43] , field Cmax: 762 ng/mL
